# ASSAYED_SYSTEM: T1, biotinylated Fc-fused monkey CD137 (monkey, biotin on the AviTag)
# T1 construct: also called cyCD137-Fc-BAP
# T1 sequence (chain, as listed by the source limits assumed): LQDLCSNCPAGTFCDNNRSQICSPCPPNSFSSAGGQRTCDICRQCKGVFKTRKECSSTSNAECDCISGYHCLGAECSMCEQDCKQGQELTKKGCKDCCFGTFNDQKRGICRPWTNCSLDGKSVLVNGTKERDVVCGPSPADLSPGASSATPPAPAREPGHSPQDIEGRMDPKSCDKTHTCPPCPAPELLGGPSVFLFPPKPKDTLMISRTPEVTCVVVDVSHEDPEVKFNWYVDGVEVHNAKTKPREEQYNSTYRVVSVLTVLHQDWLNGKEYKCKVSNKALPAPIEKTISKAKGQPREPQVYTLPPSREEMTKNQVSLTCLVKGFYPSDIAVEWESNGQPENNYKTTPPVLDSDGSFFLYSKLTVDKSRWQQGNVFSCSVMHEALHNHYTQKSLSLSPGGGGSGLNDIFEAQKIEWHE
# PROTOCOL_SUMMARY: ELISA, 1 mM ADP, 0.010 ug/mL
# Design: reference not given here
READOUT_TYPE: absorbance ratio

BINDER	RESULT
dBBAT015-P253 (antibody, human IgG1, lambda, V domains shown) VH: EVQLVESGGDLVKPGGGLRLSCAASGFTFSTYTMNWVRQAPGKGLEWVSSISSRSTYATYADSVKGRFTISRDNAKNSLYLQMNSLRAEDTAVYYCARYGLKNSLNWVFDYWGQGTLVTVSS VL: QSALTQPPSASGSPGQTVTISCTGTSTDVGFYNYVSWYQQHPGKAPKLMIYEVSKKPSGVPDRFSGSKSGNTASLTVSGLQAEDEADYFCSTYSYDESVAFGGGTKLTVLG	1.1
dBBAT037-P253 (antibody, human IgG1, lambda, V domains shown) VH: EVQLVESGGDLVKPGGGLRLSCAASGFTFSGYTMNWVRQAPGKGLEWVSSISSRSNYIDYADSVKGRFTISRDNAKNSLYLQMNSLRAEDTAVYYCARFGLKNSLNWVFDYWGQGTLVTVSS VL: QSALTQPPSASGSPGQTVTISCTGTSTDVGFYNYVSWYQQHPGKAPKLMIYETSKRPSGVPDRFSGSKSGNTASLTVSGLQAEDEADYFCSSYSGASILLFGGGTKLTVLG	1.1
dBBAT053-P253 (antibody, human IgG1, lambda, V domains shown) VH: EVQLVESGGDLVKPGGGLRLSCAASGFTFSTFTMNWVRQAPGKGLEWVSSISSRSNYIYYADSVKGRFTISRDNAKNSLYLQMNSLRAEDTAVYYCARFGLKNEMNWVFDYWGQGTLVTVSS VL: QSALTQPPSASGSPGQTVTISCTGTSSDVGFYNYVSWYQQHPGKAPKLMIYEGSKKPSGVPDRFSGSKSGNTASLTVSGLQAEDEADYFCSVYSYIYYVLFGGGTKLTVLG	0.8

Numbers sourced from patent US20230272099A1.
